Measured on: Human complement C1s enzyme (Homo sapiens, UniProt P09871)
Sequence (P09871 438-688 limits assumed): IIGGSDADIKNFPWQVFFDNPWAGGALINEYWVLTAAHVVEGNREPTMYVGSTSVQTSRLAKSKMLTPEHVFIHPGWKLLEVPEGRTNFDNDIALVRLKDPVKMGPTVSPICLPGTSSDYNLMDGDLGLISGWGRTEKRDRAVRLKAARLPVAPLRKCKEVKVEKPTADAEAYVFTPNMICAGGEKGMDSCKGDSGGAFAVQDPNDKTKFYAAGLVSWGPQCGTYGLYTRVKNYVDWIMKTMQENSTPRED
Sequence (P09871 16-437 partner limits assumed): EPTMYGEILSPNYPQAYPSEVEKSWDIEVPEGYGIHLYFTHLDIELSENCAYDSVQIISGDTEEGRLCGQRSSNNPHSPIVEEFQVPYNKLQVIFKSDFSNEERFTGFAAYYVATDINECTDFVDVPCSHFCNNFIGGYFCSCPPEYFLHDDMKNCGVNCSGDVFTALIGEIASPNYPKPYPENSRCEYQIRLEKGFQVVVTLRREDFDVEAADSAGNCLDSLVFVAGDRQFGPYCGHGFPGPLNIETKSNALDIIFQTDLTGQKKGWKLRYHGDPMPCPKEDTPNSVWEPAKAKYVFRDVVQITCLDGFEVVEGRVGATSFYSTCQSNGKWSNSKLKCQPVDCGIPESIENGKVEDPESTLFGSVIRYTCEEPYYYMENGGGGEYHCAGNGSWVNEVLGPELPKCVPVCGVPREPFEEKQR
Test description: Human C1s enzyme assay
Assay type: biochemical
Condition details: human complement C1s enzyme 1.16 nM, substrate Z-L-Lys-SBzl 100 μM, 5 min preincubation; read-out: IC50 (Stars), C1s Inhibiting Activity
pIC50: −log10 of the molar value.
Observation type: pIC50

Please review the entries below; each comes with its answer.
> print(dat)
                                        mol  observation.type    data.value
1  O=C(NCC(=O)N1CC2(C[C@H]1C(=O)NCc1cc3ccncc3[nH]1)OCCO2)c1ccc2c(c1)-c1ccccc1C2(F)F             pIC50  6.00 to 7.00
2  C[C@@H](NC(=O)[C@@H]1C[C@@H](S(=O)(=O)C2CC2)CN1C(=O)CNC(=O)c1ccc2c(c1)Oc1ccccc1S2)c1cc2cnccc2[nH]1             pIC50        > 7.00
3  O=C(NCC(=O)N1C[C@H](OC(F)F)C[C@H]1C(=O)O)c1ccc(Oc2ccccc2)cc1             pIC50        < 6.00
4  Cc1ccc2oc3ccc(C(=O)NCC(=O)N4C[C@H](OC(F)F)C[C@H]4C(=O)NCc4cc5cnccc5[nH]4)cc3c2c1             pIC50        > 7.00
5  Cc1ccc(Oc2cccc(C(=O)NCC(=O)N3C[C@H](OC(F)F)C[C@H]3C(=O)NCc3cc4cnccc4[nH]3)c2)c(C)c1             pIC50        > 7.00

**Query** Look up pIC50 for this compound: C[C@@H](NC(=O)[C@@H]1C[C@@H](S(C)(=O)=O)CN1C(=O)CNC(=O)c1ccc(-c2ccccc2)cc1)c1cc2cnccc2[nH]1
**Result** 6.00 to 7.00

**Query** Returns the measured pIC50 for the input compound. Input: Cc1ccc(Oc2cc(C(=O)NCC(=O)N3C[C@H](OC(F)F)C[C@H]3C(=O)NCc3cc4cnccc4[nH]3)ccc2C)cc1
**Result** > 7.00
